tested on: Rv1258c efflux pump; conditions: H37Rv MIC / Rv1258c KO MIC
Readout: Efflux Ratio
Give the figure only, with no unit attached.

QUERY: Query Efflux Ratio for CN[C@@H]1[C@H](O)[C@H](NC)[C@H]2O[C@]3(O)[C@H](O[C@@H]2[C@H]1O)O[C@H](C)C[C@H]3NC(=O)Cc1ccc(O)cn1.Cl.Cl.Cl
RESULT: 0.5

QUERY: Query Efflux Ratio for Br.Br.Br.CNC1C(O)C(NC)C2OC3(O)C(NC(=O)Cc4cc(C(C)C)ccn4)CC(C)OC3OC2C1O (stereo not drawn)
RESULT: 4

QUERY: Query Efflux Ratio for Br.Br.Br.CNC1C(O)C(NC)C2OC3(O)C(NC(=O)Cc4cc(C)ccn4)CC(C)OC3OC2C1O (stereo not drawn)
RESULT: 0.5

QUERY: Query Efflux Ratio for Br.Br.Br.CN[C@@H]1[C@H](O)[C@H](NC)[C@H]2O[C@]3(O)[C@H](O[C@@H]2[C@H]1O)O[C@H](C)C[C@H]3NC(=O)Cc1nccc(Cl)c1C
RESULT: 2

QUERY: Query Efflux Ratio for Br.Br.Br.CNC1C(O)C(NC)C2OC3(O)C(NC(=O)Cc4ncccc4C)CC(C)OC3OC2C1O (stereo not drawn)
RESULT: 4

---
QUERY: Query Efflux Ratio for CN[C@@H]1[C@H](O)[C@H](NC)[C@H]2O[C@]3(O)[C@H](O[C@@H]2[C@H]1O)O[C@H](C)C[C@H]3NC(=O)Cc1ccc(OC(F)(F)F)cn1.Cl.Cl.Cl
RESULT: 4

QUERY: Query Efflux Ratio for Br.Br.Br.CNC1C(O)C(NC)C2OC3(O)C(NC(=O)Cc4nc5ccccc5s4)CC(C)OC3OC2C1O (stereo not drawn)
RESULT: 2

QUERY: Query Efflux Ratio for Br.Br.Br.CNC1C(O)C(NC)C2OC3(O)C(OC(C)C[C@H]3NC(=O)Cc3cnccn3)OC2C1O (stereo partly drawn)
RESULT: 1

QUERY: Query Efflux Ratio for Br.Br.Br.CNC1C(O)C(NC)C2OC3(O)C(NC(=O)Cc4cc(OC)ccn4)CC(C)OC3OC2C1O (stereo not drawn)
RESULT: 4

QUERY: Query Efflux Ratio for Br.Br.Br.CNC1C(O)C(NC)C2OC3(O)C(OC(C)C[C@H]3NC(=O)Cc3nc4ccccc4n3C)OC2C1O (stereo partly drawn)
RESULT: 2

QUERY: Query Efflux Ratio for Br.Br.Br.CN[C@@H]1[C@H](O)[C@H](NC)[C@H]2O[C@]3(O)[C@H](O[C@@H]2[C@H]1O)O[C@H](C)C[C@H]3NC(=O)Cc1nc2ccccc2[nH]1
RESULT: 1

QUERY: Query Efflux Ratio for Br.Br.Br.CNC1C(O)C(NC)C2OC3(O)C(NC(=O)Cc4nc5ccccc5o4)CC(C)OC3OC2C1O (stereo not drawn)
RESULT: 2

QUERY: Query Efflux Ratio for CN[C@@H]1[C@H](O)[C@H](NC)[C@H]2O[C@]3(O)[C@H](O[C@@H]2[C@H]1O)O[C@H](C)C[C@H]3NC(=O)Cc1ncc[nH]1.Cl.Cl.Cl
RESULT: 2

QUERY: Query Efflux Ratio for Br.Br.Br.CNC1C(O)C(NC)C2OC3(O)C(OC(C)C[C@H]3NC(=O)Cc3ccncn3)OC2C1O (stereo partly drawn)
RESULT: 0.5

QUERY: Query Efflux Ratio for CN[C@@H]1[C@H](O)[C@H](NC)[C@H]2O[C@@]3(O)C(=O)C[C@@H](C)O[C@H]3O[C@@H]2[C@H]1O [SPC, Spectinomycin, reference compound]
RESULT: 16

QUERY: Query Efflux Ratio for Br.Br.Br.CNC1C(O)C(NC)C2OC3(O)C(NC(=O)Cn4cccn4)CC(C)OC3OC2C1O (stereo not drawn)
RESULT: 1

QUERY: Query Efflux Ratio for CNC1C(O)C(NC)C2OC3(O)C(NC(=O)Cc4cc(O)ccn4)CC(C)OC3OC2C1O.Cl.Cl.Cl (stereo not drawn)
RESULT: 2

QUERY: Query Efflux Ratio for Br.Br.Br.CNC1C(O)C(NC)C2OC3(O)C(OC(C)C[C@H]3NC(=O)Cc3cccc(C)n3)OC2C1O (stereo partly drawn)
RESULT: 4

QUERY: Query Efflux Ratio for CNC1C(O)C(NC)C2OC3(O)C(OC(C)C[C@H]3NC(=O)Cc3ccc(OC(F)F)cn3)OC2C1O.Cl.Cl.Cl (stereo partly drawn)
RESULT: 2

QUERY: Query Efflux Ratio for CNC1C(O)C(NC)C2OC3(O)C(OC(C)C[C@H]3NC(=O)Cc3cc(OC)c(F)cn3)OC2C1O.Cl.Cl.Cl (stereo partly drawn)
RESULT: 2

QUERY: Query Efflux Ratio for Br.Br.Br.CNC1C(O)C(NC)C2OC3(O)C(NC(=O)Cc4c[nH]cn4)CC(C)OC3OC2C1O (stereo not drawn)
RESULT: 2

QUERY: Query Efflux Ratio for Br.Br.Br.CNC1C(O)C(NC)C2OC3(O)C(NC(=O)Cc4nccs4)CC(C)OC3OC2C1O (stereo not drawn)
RESULT: 1

QUERY: Query Efflux Ratio for Br.Br.Br.CN[C@@H]1[C@H](O)[C@H](NC)[C@H]2O[C@]3(O)[C@H](O[C@@H]2[C@H]1O)O[C@H](C)C[C@H]3NC(=O)Cc1ccc(OC)cn1
RESULT: 0.5

QUERY: Query Efflux Ratio for Br.Br.Br.CNC1C(O)C(NC)C2OC3(O)C(OC(C)C[C@H]3NC(=O)Cc3nccc(Cl)c3C(C)C)OC2C1O (stereo partly drawn)
RESULT: 32

QUERY: Query Efflux Ratio for Br.Br.Br.CNC1C(O)C(NC)C2OC3(O)C(OC(C)C[C@H]3NC(=O)Cn3ccnc3)OC2C1O (stereo partly drawn)
RESULT: 8
